measured.target: Voltage-dependent N-type calcium channel subunit alpha-1B (Homo sapiens, UniProt Q00975)
Sequence (Q00975 whole entry): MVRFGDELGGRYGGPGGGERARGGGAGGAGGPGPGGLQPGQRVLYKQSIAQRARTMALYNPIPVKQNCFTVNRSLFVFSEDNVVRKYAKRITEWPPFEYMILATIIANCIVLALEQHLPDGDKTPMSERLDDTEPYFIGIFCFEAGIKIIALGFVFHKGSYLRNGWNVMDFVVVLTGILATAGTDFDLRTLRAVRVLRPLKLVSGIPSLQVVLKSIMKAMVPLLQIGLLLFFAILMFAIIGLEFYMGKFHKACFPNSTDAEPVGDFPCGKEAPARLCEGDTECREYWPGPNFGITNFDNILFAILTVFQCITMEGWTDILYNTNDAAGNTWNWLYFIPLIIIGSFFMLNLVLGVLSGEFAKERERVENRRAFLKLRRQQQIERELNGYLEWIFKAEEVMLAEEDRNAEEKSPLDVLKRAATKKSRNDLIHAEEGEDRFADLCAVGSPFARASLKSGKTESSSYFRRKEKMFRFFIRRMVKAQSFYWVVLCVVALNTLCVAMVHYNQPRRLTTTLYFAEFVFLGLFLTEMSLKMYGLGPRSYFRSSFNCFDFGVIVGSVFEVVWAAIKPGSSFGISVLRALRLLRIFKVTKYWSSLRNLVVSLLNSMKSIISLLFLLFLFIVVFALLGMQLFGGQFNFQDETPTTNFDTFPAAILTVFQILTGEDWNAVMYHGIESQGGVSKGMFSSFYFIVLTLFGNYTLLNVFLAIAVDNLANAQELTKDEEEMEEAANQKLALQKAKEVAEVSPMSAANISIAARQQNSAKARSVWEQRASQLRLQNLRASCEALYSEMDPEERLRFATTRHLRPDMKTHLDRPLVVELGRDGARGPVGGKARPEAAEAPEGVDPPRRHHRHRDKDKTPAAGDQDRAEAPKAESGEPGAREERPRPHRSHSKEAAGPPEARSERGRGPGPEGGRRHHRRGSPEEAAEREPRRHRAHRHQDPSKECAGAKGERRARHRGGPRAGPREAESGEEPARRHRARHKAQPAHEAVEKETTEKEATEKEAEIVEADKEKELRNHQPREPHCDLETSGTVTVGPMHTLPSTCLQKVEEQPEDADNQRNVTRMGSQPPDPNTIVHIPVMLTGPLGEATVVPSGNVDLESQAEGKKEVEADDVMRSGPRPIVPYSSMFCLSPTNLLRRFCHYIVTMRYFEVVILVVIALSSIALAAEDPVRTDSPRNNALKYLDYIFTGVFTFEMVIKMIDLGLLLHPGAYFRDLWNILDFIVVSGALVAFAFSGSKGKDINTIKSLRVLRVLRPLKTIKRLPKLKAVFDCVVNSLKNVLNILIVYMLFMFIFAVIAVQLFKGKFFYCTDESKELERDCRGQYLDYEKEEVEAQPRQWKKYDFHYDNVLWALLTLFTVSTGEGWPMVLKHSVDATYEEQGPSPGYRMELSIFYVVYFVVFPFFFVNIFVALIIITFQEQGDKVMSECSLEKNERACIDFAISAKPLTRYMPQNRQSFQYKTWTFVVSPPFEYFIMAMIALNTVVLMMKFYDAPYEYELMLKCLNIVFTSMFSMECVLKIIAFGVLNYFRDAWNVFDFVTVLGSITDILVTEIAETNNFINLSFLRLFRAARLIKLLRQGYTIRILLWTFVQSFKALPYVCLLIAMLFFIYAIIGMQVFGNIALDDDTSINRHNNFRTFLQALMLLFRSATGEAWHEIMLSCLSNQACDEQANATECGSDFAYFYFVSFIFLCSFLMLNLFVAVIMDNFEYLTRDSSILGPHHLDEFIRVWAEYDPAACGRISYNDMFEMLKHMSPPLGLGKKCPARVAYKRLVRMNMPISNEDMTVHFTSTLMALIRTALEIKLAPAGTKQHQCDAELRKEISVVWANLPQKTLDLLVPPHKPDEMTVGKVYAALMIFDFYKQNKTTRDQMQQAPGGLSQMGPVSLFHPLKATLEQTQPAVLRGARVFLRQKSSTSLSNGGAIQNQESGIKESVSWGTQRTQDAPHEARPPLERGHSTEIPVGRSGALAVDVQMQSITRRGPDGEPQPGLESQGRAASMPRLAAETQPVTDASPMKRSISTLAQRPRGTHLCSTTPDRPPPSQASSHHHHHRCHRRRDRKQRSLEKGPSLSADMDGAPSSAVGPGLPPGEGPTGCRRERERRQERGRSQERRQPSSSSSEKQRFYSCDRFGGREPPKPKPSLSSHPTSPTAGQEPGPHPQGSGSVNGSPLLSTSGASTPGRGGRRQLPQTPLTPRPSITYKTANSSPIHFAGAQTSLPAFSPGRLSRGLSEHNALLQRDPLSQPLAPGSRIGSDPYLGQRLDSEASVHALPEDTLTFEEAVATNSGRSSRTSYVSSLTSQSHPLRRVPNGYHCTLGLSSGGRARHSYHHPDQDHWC
protocol.summary: Inhibition of N-type calcium channels in IMR-32 human neuroblastoma cells
readout.label: IC50 (nM)
Supply the numeric figure in nM, leaving out any unit text.

Qu. May I ask what IC50 has been recorded for CC(C)C[C@@H](C(=O)N[C@@H](Cc1ccc(OC(=O)c2ccccc2)cc1)C(=O)NC(C)(C)C)N(C)CCc1ccccc1 ?
Ans. 1700

Qu. May I ask what IC50 has been recorded for CC(C)C[C@@H](C(=O)N[C@@H](Cc1ccc(OC(=O)c2ccccc2)cc1)C(=O)NC(C)(C)C)N(C)Cc1ccc(N(C)C)cc1 ?
Ans. 280

Qu. May I ask what IC50 has been recorded for CC(C)C[C@@H](C(=O)N[C@@H](Cc1ccc(OC(=O)c2ccccc2)cc1)C(=O)NC(C)(C)C)N(C)CC1CCCCC1 ?
Ans. 680

Qu. May I ask what IC50 has been recorded for CC(C)C[C@@H](C(=O)N[C@@H](Cc1ccc(OC(=O)c2ccccc2)cc1)C(=O)NC(C)(C)C)N(C)Cc1ccc(Br)cc1 ?
Ans. 130

Qu. May I ask what IC50 has been recorded for CC(C)C[C@@H](C(=O)N[C@@H](Cc1ccc(OC(=O)c2ccccc2)cc1)C(=O)NC(C)(C)C)N(C)Cc1ccccc1Cl ?
Ans. 560

Qu. May I ask what IC50 has been recorded for CC(C)C[C@@H](C(=O)N[C@@H](Cc1ccc(OC(=O)c2ccccc2)cc1)C(=O)NC(C)(C)C)N(C)Cc1cccnc1 ?
Ans. 1700

Qu. May I ask what IC50 has been recorded for CC(C)C[C@@H](C(=O)N[C@@H](Cc1ccc(OC(=O)c2ccccc2)cc1)C(=O)NC(C)(C)C)N(C)Cc1ccco1 ?
Ans. 1600

Qu. May I ask what IC50 has been recorded for CC(C)C[C@@H](C(=O)N[C@@H](Cc1ccc(OC(=O)c2ccccc2)cc1)C(=O)NC(C)(C)C)N(C)Cc1ccc(Cl)cc1 ?
Ans. 230

Qu. May I ask what IC50 has been recorded for CC(C)C[C@@H](C(=O)N[C@@H](Cc1ccc(OC(=O)c2ccccc2)cc1)C(=O)NC(C)(C)C)N(C)Cc1ccccc1 ?
Ans. 360

Qu. May I ask what IC50 has been recorded for CC(C)C[C@@H](C(=O)N[C@@H](Cc1ccc(OC(=O)c2ccccc2)cc1)C(=O)NC(C)(C)C)N(C)Cc1ccc(O)cc1 ?
Ans. 1000

----------
measured.target: Voltage-dependent N-type calcium channel subunit alpha-1B (Homo sapiens, UniProt Q00975)
protocol.summary: Inhibition of N-type calcium channels in IMR-32 human neuroblastoma cells
Assignment: determine reported IC50 for the given compounds.
Supply the numeric figure in nM, leaving out any unit text.

Qu. May I ask what IC50 has been recorded for CC(C)C[C@@H](C(=O)N[C@@H](Cc1ccc(OC(=O)c2ccccc2)cc1)C(=O)NC(C)(C)C)N(C)CCCc1ccccc1 ?
Ans. 1900

Qu. May I ask what IC50 has been recorded for CC(C)C[C@@H](C(=O)N[C@@H](Cc1ccc(OC(=O)c2ccccc2)cc1)C(=O)NC(C)(C)C)N(C)Cc1cccc(Cl)c1 ?
Ans. 1000

Qu. May I ask what IC50 has been recorded for COc1ccc(CN(C)[C@@H](CC(C)C)C(=O)N[C@@H](Cc2ccc(OC(=O)c3ccccc3)cc2)C(=O)NC(C)(C)C)cc1 ?
Ans. 500

Qu. May I ask what IC50 has been recorded for CC(C)C[C@@H](C(=O)N[C@@H](Cc1ccc(OC(=O)c2ccccc2)cc1)C(=O)NC(C)(C)C)N(C)Cc1ccc(C(C)(C)C)cc1 ?
Ans. 36
